Source listed as patent US20250275976A1.

# Test system: THP-1-differentiated macrophages
# PROTOCOL_SUMMARY: Pro-inflammatory cytokines in supernatants of LPS-challenged THP-1-differentiated macrophages
# Type: cell-based, human
# Set-up: key: IL-6 / Significant reduction in pro-inflammatory cytokine expression: TNF-α / Significant reduction in pro-inflammatory cytokine expression: IL-1β: “NS” indicates a non-significant reduction in the indicated cytokine; “+” indicates a p value <0.05 in Tukey post test; “++” indicates a p value <0.01 in Tukey post test
# TEST_CONTEXT: dose 10 nM; LPS 24 hrs
RECORDED_ENDPOINT: Significant reduction in pro-inflammatory cytokine expression: TNF-α

# COMPOUND, MEASUREMENT
data = [
    ("CCC(C)CN1CC2N(Cc3ccc(OC(F)F)cc3)CCC(=O)N2[C@@H](C)C1=O (stereo partly shown) [Compound 6a]", "NS"),
    ("CCC(C)CN1CC2N(Cc3ccc(C(F)(F)F)cc3)CCC(=O)N2[C@@H](C)C1=O (stereo partly shown) [Compound 5a]", "NS"),
]

----------
# Tested on: THP-1-differentiated macrophages
# PROTOCOL_SUMMARY: Pro-inflammatory cytokines in supernatants of LPS-challenged THP-1-differentiated macrophages
# Type: cell-based, human
# Set-up: key: IL-6 / Significant reduction in pro-inflammatory cytokine expression: TNF-α / Significant reduction in pro-inflammatory cytokine expression: IL-1β: “NS” indicates a non-significant reduction in the indicated cytokine; “+” indicates a p value <0.05 in Tukey post test; “++” indicates a p value <0.01 in Tukey post test
# TEST_CONTEXT: dose 10 nM; LPS 24 hrs
RECORDED_ENDPOINT: Significant reduction in pro-inflammatory cytokine expression: IL-6

# COMPOUND, MEASUREMENT
data = [
    ("CCC(C)CN1CC2N(Cc3ccc(OC(F)F)cc3)CCC(=O)N2[C@@H](C)C1=O (stereo partly shown) [Compound 6a]", "NS"),
]
